Assay: Plasma and brain concentrations in GS2 tumor-bearing mice
Assay type: in vivo
Conditions: mouse, plasma; 8 h post-dose, 15 mg/kg PO; read-out: Plasma
observation type: concentration at 8 h (nM)
Record the value in nM, omitting the unit from your answer.

Give the measured concentration at 8 h for CC1(C)OCCn2c1nc1c(N3CCOCC3)nc(-c3cnc(N)nc3)nc12 [GDC-0084]
2010

###

Experiment: Phase I dose-escalation study, plasma pharmacokinetics;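 as to Cmax: mean maximum plasma concentration Cmax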
Assay type: in vivo, human
Settings: human, plasma; 30 mg single oral dose, Cycle 1 Day 1
observation type: Cmax (µM)
Record the value in µM, omitting the unit from your answer.

Give the measured Cmax for "CC1(C)OCCn2c1nc1c(N3CCOCC3)nc(-c3cnc(N)nc3)nc12"
0.174

###

Assay: Phase I dose-escalation study, plasma pharmacokinetics
Assay type: in vivo, human
Settings: human, plasma, oral; 8 mg once daily, multiple doses, Cycle 1 Day 15; read-out: AUC0-24 (μM*hr), Mean
observation type: AUC(0-t) (µM·h)
Record the value in µM·h, omitting the unit from your answer.

Give the measured AUC(0-t) for CC1(C)OCCn2c1nc1c(N3CCOCC3)nc(-c3cnc(N)nc3)nc12 [GDC-0084]
1.16

###

Assay: Phase I dose-escalation study, plasma pharmacokinetics;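 as to Cmax: mean maximum plasma concentration Cmax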
Assay type: in vivo, human
Details: human, plasma, oral; 4 mg once daily, multiple doses, Cycle 1 Day 15
observation type: Cmax (µM)
Record the value in µM, omitting the unit from your answer.

Give the measured Cmax for CC1(C)OCCn2c1nc1c(N3CCOCC3)nc(-c3cnc(N)nc3)nc12 [GDC-0084]
0.593

###

Test: Phase I dose-escalation study, plasma pharmacokinetics
Assay type: in vivo, human
Settings: human, plasma; 45 mg single oral dose, Cycle 1 Day 1; read-out: AUC0-24 (μM*hr), Mean
observation type: AUC(0-t) (µM·h)
Record the value in µM·h, omitting the unit from your answer.

Give the measured AUC(0-t) for CC1(C)OCCn2c1nc1c(N3CCOCC3)nc(-c3cnc(N)nc3)nc12 [GDC-0084]
3.12

###

Assay: Phase I dose-escalation study, plasma pharmacokinetics
Format: in vivo, human
Conditions: human, plasma; 2 mg single oral dose, Cycle 1 Day 1; read-out: AUC0-24 (μM*hr), Mean
observation type: AUC(0-t) (µM·h)
Record the value in µM·h, omitting the unit from your answer.

Give the measured AUC(0-t) for "CC1(C)OCCn2c1nc1c(N3CCOCC3)nc(-c3cnc(N)nc3)nc12"
0.21

###

Experiment: Phase I dose-escalation study, plasma pharmacokinetics;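 as to Cmax: mean maximum plasma concentration Cmax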
Format: in vivo, human
Details: human, plasma; 20 mg single oral dose, Cycle 1 Day 1
observation type: Cmax (µM)
Record the value in µM, omitting the unit from your answer.

Give the measured Cmax for CC1(C)OCCn2c1nc1c(N3CCOCC3)nc(-c3cnc(N)nc3)nc12 [GDC-0084]
0.159

###

Assay: Phase I dose-escalation study, plasma pharmacokinetics
Assay type: in vivo, human
Conditions: human, plasma, oral; 2 mg once daily, multiple doses, Cycle 1 Day 15; read-out: Cmin (μM), Mean
observation type: concentration at 15 day (µM)
Record the value in µM, omitting the unit from your answer.

Give the measured concentration at 15 day for "CC1(C)OCCn2c1nc1c(N3CCOCC3)nc(-c3cnc(N)nc3)nc12"
0.00877

###

Assay: Phase I dose-escalation study, plasma pharmacokinetics;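 as to Cmax: mean maximum plasma concentration Cmax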
Type: in vivo, human
Conditions: human, plasma; 4 mg single oral dose, Cycle 1 Day 1
observation type: Cmax

Give the measured Cmax for CC1(C)OCCn2c1nc1c(N3CCOCC3)nc(-c3cnc(N)nc3)nc12 [GDC-0084]
0.0359 µM

###

Assay: In vivo pharmacokinetics IV and PO
Parameters: species or system beagle dogs
Details: beagle, plasma; Dog, PO 2 mg/kg in MCT
observation type: bioavailability (%)
Record the value in %, omitting the unit from your answer.

Give the measured bioavailability for "CC1(C)OCCn2c1nc1c(N3CCOCC3)nc(-c3cnc(N)nc3)nc12"
40

###

Test: In vivo pharmacokinetics IV and PO
Design: species or system beagle dogs
Details: beagle, plasma; Dog, IV 1 mg/kg; read-out: In vivo Cl
observation type: clearance (mL/min/kg)
Record the value in mL/min/kg, omitting the unit from your answer.

Give the measured clearance for CC1(C)OCCn2c1nc1c(N3CCOCC3)nc(-c3cnc(N)nc3)nc12 [GDC-0084]
26

###

Test: Phase I dose-escalation study, plasma pharmacokinetics
Type: in vivo, human
Details: human, plasma, oral; 8 mg once daily, multiple doses, Cycle 1 Day 15; read-out: Tmax (hr), Median
observation type: Tmax (h)
Record the value in h, omitting the unit from your answer.

Give the measured Tmax for CC1(C)OCCn2c1nc1c(N3CCOCC3)nc(-c3cnc(N)nc3)nc12 [GDC-0084]
2.5

###

Assay: Phase I dose-escalation study, plasma pharmacokinetics;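 as to Cmax: mean maximum plasma concentration Cmax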
Assay type: in vivo, human
Conditions: human, plasma, oral; 8 mg once daily, multiple doses, Cycle 1 Day 15
observation type: Cmax (µM)
Record the value in µM, omitting the unit from your answer.

Give the measured Cmax for CC1(C)OCCn2c1nc1c(N3CCOCC3)nc(-c3cnc(N)nc3)nc12 [GDC-0084]
0.0883

###

Test: Phase I dose-escalation study, plasma pharmacokinetics
Assay type: in vivo, human
Conditions: human, plasma, oral; 15 mg once daily, multiple doses, Cycle 1 Day 15; read-out: Tmax (hr), Median
observation type: Tmax (h)
Record the value in h, omitting the unit from your answer.

Give the measured Tmax for "CC1(C)OCCn2c1nc1c(N3CCOCC3)nc(-c3cnc(N)nc3)nc12"
3

###

Experiment: Phase I dose-escalation study, plasma pharmacokinetics
Assay type: in vivo, human
Details: human, plasma; 20 mg single oral dose, Cycle 1 Day 1; read-out: AUCinf (μM*hr), Mean
observation type: AUC(0-inf) (µM·h)
Record the value in µM·h, omitting the unit from your answer.

Give the measured AUC(0-inf) for "CC1(C)OCCn2c1nc1c(N3CCOCC3)nc(-c3cnc(N)nc3)nc12"
2.75

###

Test: Phase I dose-escalation study, plasma pharmacokinetics
Format: in vivo, human
Conditions: human, plasma, po, 8 mg, 8 mg single oral dose, Cycle 1 Day 1; read-out: T1/2 (hr), Mean (converted)
observation type: half-life (h)
Record the value in h, omitting the unit from your answer.

Give the measured half-life for "CC1(C)OCCn2c1nc1c(N3CCOCC3)nc(-c3cnc(N)nc3)nc12"
18.2

###

Experiment: Phase I dose-escalation study, plasma pharmacokinetics
Type: in vivo, human
Conditions: human, plasma; 45 mg single oral dose, Cycle 1 Day 1; read-out: Tmax (hr), Median
observation type: Tmax (h)
Record the value in h, omitting the unit from your answer.

Give the measured Tmax for CC1(C)OCCn2c1nc1c(N3CCOCC3)nc(-c3cnc(N)nc3)nc12 [GDC-0084]
3

###

Test: Phase I dose-escalation study, plasma pharmacokinetics
Type: in vivo, human
Conditions: human, plasma, oral; 45 mg once daily, multiple doses, Cycle 1 Day 8; read-out: Tmax (hr), Median
observation type: Tmax (h)
Record the value in h, omitting the unit from your answer.

Give the measured Tmax for CC1(C)OCCn2c1nc1c(N3CCOCC3)nc(-c3cnc(N)nc3)nc12 [GDC-0084]
3.5

###

Assay: Phase I dose-escalation study, plasma pharmacokinetics
Type: in vivo, human
Conditions: human, plasma, oral; 30 mg once daily, multiple doses, Cycle 1 Day 15; read-out: Tmax (hr), Median
observation type: Tmax (h)
Record the value in h, omitting the unit from your answer.

Give the measured Tmax for "CC1(C)OCCn2c1nc1c(N3CCOCC3)nc(-c3cnc(N)nc3)nc12"
2

###

Assay: Phase I dose-escalation study, plasma pharmacokinetics;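 as to Cmax: mean maximum plasma concentration Cmax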
Assay type: in vivo, human
Settings: human, plasma; 15 mg single oral dose, Cycle 1 Day 1
observation type: Cmax
Record the result as a number with its unit.

Give the measured Cmax for CC1(C)OCCn2c1nc1c(N3CCOCC3)nc(-c3cnc(N)nc3)nc12 [GDC-0084]
0.0912 µM

###

Assay: Phase I dose-escalation study, plasma pharmacokinetics
Format: in vivo, human
Settings: human, plasma, oral; 2 mg once daily, multiple doses, Cycle 1 Day 15; read-out: AUC0-24 (μM*hr), Mean
observation type: AUC(0-t) (µM·h)
Record the value in µM·h, omitting the unit from your answer.

Give the measured AUC(0-t) for CC1(C)OCCn2c1nc1c(N3CCOCC3)nc(-c3cnc(N)nc3)nc12 [GDC-0084]
0.346

###

Assay: Phase I dose-escalation study, plasma pharmacokinetics
Assay type: in vivo, human
Settings: human, plasma; 8 mg single oral dose, Cycle 1 Day 1; read-out: AUCinf (μM*hr), Mean
observation type: AUC(0-inf) (µM·h)
Record the value in µM·h, omitting the unit from your answer.

Give the measured AUC(0-inf) for "CC1(C)OCCn2c1nc1c(N3CCOCC3)nc(-c3cnc(N)nc3)nc12"
0.974

###

Molecular target: human BCRP (Homo sapiens, UniProt Q9UNQ0)
Construct: host or cells: BCRP-MDCKII (canine kidney)
Sequence (Q9UNQ0 whole entry): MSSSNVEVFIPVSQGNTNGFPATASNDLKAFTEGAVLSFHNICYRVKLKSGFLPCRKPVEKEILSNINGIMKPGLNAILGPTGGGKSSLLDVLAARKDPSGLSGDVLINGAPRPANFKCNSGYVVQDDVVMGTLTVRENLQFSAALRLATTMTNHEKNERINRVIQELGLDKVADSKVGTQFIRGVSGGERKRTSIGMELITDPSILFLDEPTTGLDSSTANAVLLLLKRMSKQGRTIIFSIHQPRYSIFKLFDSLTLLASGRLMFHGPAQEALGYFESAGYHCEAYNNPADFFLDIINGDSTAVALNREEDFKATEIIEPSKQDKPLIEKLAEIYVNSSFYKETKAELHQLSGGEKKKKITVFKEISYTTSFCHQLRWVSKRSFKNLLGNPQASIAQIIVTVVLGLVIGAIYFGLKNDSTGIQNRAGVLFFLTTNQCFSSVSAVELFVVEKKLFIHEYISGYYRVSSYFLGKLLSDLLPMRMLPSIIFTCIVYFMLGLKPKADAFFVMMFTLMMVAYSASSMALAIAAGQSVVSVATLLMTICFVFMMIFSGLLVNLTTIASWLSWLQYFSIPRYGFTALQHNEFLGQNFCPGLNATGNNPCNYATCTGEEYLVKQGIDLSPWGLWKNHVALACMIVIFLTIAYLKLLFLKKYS
Assay: Transport assay in BCRP-MDCKII cell monolayers
Type: in vitro ADME
Conditions: 2-hour incubation
observation type: Papp A→B at 2 h, 5 μM (×10⁻⁶ cm/s)
Record the value in ×10⁻⁶ cm/s, omitting the unit from your answer.

Give the measured Papp A→B at 2 h, 5 μM for "CC1(C)OCCn2c1nc1c(N3CCOCC3)nc(-c3cnc(N)nc3)nc12"
23.2
